- Target Desc: T1, human serum albumin (human, UniProt P02768 25-609)
- T1 construct: Bought protein, immobilized on a CM5 chip by amine coupling; also called Human SA
- Assay Remarks: SPR (Biacore 8K), albumin immobilized on CM5 chip, 25 C, 1:1 kinetic fit
Measurement Label: koff (s⁻¹)
Answers are plain numbers, in s⁻¹.

Param item = RLN Analog 9 (other, Single-chain fusion: RLN2 B chain (desB1) - L2 - RLN2 A chain - (G4Q)5 L1 - VHH (C-terminal)) SWMEEVIKLCGRELVRAQIAICGMSTWSGGGSGGSGGGQLYSALANKCCHVGCTKRSLARFCGGGGQGGGGQGGGGQGGGGQGGGGQEVQLLESGGGLVQPGGSLRLSCAASGRYIDETAVAWFRQAPGKGREFVAGIGGGVDITYYADSVKGRFTISRDNSKNTLYLQMNSLRPEDTAVYYCAARPGRPLITSKVADLYPYWGQGTLVTVSSPP ; retrieve measured koff. 0.00018
